Reported activity, negative = cell killing by item:
Experiment summary: Drug repurposing screens with cells derived from glioblastoma tumor samples (AID 1345199); note: % is set by controls: 0 for no effect and ±100 for the full control effect
Experimental parameters: GBM patient neurospheres viability, ATP luminescence, 48 h; at 46.1 µM (top of the series); tumour line C
Results filed as inconclusive are left out.
Numeric only. Scale: %

[[record]]
compound = "O=c1[nH]cnc2c1ncn2[C@H]1CC[C@@H](CO)O1"
property_measured = "activity, negative = cell killing"
measured = -15.1

[[record]]
compound = "CCN(CC)C(=O)c1ccc(O)c(OC)c1"
property_measured = "activity, negative = cell killing"
measured = -18.9

[[record]]
compound = "CC1(C)O[C@H]2C[C@@H]3[C@H]4CCC5=CC(=O)C=C[C@]5(C)[C@@]4(F)[C@@H](O)C[C@]3(C)[C@]2(C(=O)CO)O1"
property_measured = "activity, negative = cell killing"
measured = 3.17


Which activity, negative = cell killing is listed for CN1[C@@H]2CCC[C@@H]1CC(NC(=O)c1nn(C)c3ccccc13)C2 (stereo partly specified) ?
-11.6

Suppose we examine the compound `O=C(O)CCc1nc(-c2ccccc2)c(-c2ccccc2)o1` ; what activity, negative = cell killing value has been reported?
-11.6

Values from PubChem BioAssay (NCATS)
